Hello, the source for this data is the antibiotic and cytotoxicity screens of Wong et al. (2023), in case you need it.

# Test system: HepG2
# measurement.notes: cytotoxicity call (relative viability < 0.9)
# run.conditions: 10 µM
About 3,300 (8.5%) of roughly 39,000 compounds were called active. For the sample, actives were picked, then their nearest neighbours and some compounds at random.
Would you mind answering with one of these outcomes? active, inactive

Past entries and their recorded results:
> print(dat)
                              record.smiles     label
1  Cn1c(=O)cc(N2CCC[C@@H](N)C2)n(Cc2ccccc2C#N)c1=O  inactive
2  C[C@@H]1CCCCO[C@H](CN(C)CC2CCCCC2)[C@@H](C)CN([C@H](C)CO)C(=O)c2cc(NC(=O)Nc3ccc(C(F)(F)F)cc3)ccc2O1    active
3  COc1ccc(S(=O)(=O)N2C[C@@H](O)COC[C@H]3O[C@H](CC(=O)NCCN4CCCCC4)CC[C@@H]32)cc1  inactive

Please examine the following record next.
Field: outcome | Entry: `COc1ccc(CNC(=O)N(C)C[C@H]2OCc3ccccc3-c3c(n(C)c4ccccc34)C(=O)N([C@H](C)CO)C[C@@H]2C)cc1`
inactive
